IC50, UniProt:P22607: measured values
Sequence (P22607 397-806): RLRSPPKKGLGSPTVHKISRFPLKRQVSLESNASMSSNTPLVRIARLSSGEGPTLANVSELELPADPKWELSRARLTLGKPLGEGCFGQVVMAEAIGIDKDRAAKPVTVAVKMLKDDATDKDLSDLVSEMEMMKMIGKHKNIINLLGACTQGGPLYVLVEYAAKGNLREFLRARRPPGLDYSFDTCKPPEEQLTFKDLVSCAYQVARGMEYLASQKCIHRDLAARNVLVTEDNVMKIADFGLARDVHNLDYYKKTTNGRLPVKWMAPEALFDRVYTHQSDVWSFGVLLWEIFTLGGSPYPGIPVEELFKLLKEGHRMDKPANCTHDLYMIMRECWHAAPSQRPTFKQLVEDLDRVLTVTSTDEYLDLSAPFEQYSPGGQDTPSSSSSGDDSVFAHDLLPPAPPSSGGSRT
Numeric only. Scale: µM

                                   molecule  unit_info  meas_value
0  COc1cc(C)cc2cc(-c3cc(CN4CNC(=O)C4)n4ncnc(N)c34)sc12 [Example 63]         µM      0.0345
1  COc1cc(C)cc2cc(-c3cc(CN[C@H]4CCNC4=O)n4ncnc(N)c34)sc12 [Example 14]         µM      0.0334
2  CCN(CC)C1CCN(Cc2cc(-c3cc4cc(C)cc(OC)c4s3)c3c(N)ncnn23)C1 (centres unmarked) [Example 19]         µM      0.0272
3  COc1cc(C)cc2cc(-c3cc(CN4CCC(NCC(C)O)C4)n4ncnc(N)c34)sc12 (centres unmarked) [Example 22]         µM      0.0418

Entry CCN(Cc1cc(-c2cc3cc(C)cc(OC)c3s2)c2c(N)ncnn12)C(C)CO (centres unmarked) [Example 77] under UniProt:P22607 had IC50 of 0.0823

Entry COc1cc(C)cc2cc(-c3cc(CN(C)CCC(N)=O)n4ncnc(N)c34)sc12 [Example 67] under UniProt:P22607 had IC50 of 0.0284

Entry COc1cc(C)cc2cc(-c3cc(CN4CCC(CO)CC4)n4ncnc(N)c34)sc12 [Example 73] under UniProt:P22607 had IC50 of 0.0648

Entry COc1cc(C)cc2cc(-c3cc(CN4CC[C@@H](N)C4)n4ncnc(N)c34)sc12 [Example 53] under UniProt:P22607 had IC50 of 0.145

Entry COc1cc(C)cc2cc(-c3cc(CN4CCN(CC(N)=O)CC4)n4ncnc(N)c34)sc12 [Example 64] under UniProt:P22607 had IC50 of 0.0564

Entry COc1cc(C)cc2cc(-c3cc(CN[C@@H](C)C(N)=O)n4ncnc(N)c34)sc12 [Example 85] under UniProt:P22607 had IC50 of 0.0221

Entry COc1cc(C)cc2cc(-c3cc(COCC(C)N)n4ncnc(N)c34)sc12 (centres unmarked) [Example 119] under UniProt:P22607 had IC50 of 0.0297

Entry COc1cc(C)cc2cc(-c3cc(CN4CCC(N)CC4)n4ncnc(N)c34)sc12 [Example 26] under UniProt:P22607 had IC50 of 0.13

Entry COc1cc(C)cc2cc(-c3cc(CN4CCCC4c4ccc(C)cc4)n4ncnc(N)c34)sc12 (centres unmarked) [Example 79] under UniProt:P22607 had IC50 of 0.0486

Entry COc1cc(C)cc2cc(-c3cc(CNCCO)n4ncnc(N)c34)sc12 [Example 72] under UniProt:P22607 had IC50 of 0.0472

---

Target: UniProt P11362
Sequence (P11362 22-822 limits assumed): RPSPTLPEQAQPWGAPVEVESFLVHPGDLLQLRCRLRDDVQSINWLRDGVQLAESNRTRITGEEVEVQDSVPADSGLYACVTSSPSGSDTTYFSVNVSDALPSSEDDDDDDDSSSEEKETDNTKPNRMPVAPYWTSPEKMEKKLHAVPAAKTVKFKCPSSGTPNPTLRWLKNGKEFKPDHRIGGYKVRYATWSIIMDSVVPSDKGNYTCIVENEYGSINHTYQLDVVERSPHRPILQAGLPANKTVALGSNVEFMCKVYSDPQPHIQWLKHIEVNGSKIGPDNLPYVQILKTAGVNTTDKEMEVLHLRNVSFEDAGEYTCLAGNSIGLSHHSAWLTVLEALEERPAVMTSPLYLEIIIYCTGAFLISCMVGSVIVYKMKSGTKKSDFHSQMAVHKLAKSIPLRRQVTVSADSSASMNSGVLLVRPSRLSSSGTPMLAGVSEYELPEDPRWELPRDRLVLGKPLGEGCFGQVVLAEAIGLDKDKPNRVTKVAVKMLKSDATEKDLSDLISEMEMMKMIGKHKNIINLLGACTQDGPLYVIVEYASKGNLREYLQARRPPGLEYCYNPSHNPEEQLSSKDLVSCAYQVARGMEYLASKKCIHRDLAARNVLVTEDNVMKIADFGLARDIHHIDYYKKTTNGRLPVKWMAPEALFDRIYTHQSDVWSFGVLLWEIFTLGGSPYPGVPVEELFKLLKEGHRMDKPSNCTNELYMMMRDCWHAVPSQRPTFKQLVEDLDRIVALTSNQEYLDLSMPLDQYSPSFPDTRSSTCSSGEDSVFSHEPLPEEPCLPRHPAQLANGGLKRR
Test: FGFR-1 high ATP kinase assay (TR-FRET)
Overview of reported IC50 across a group of molecules:
Numeric only. Scale: nM

                                   molecule          target  metric_name  meas_value
0  COc1cc(C)cc2cc(-c3cc(CNC4CCC(N)C4)n4ncnc(N)c34)sc12 (stereo not shown)  UniProt P11362         IC50        63.8

Entry COc1cc(C)cc2cc(-c3cc(CN4CC[C@@H](N(C)C)C4)n4ncnc(N)c34)sc12 under UniProt P11362 had IC50 of 26

Entry CCN(Cc1cc(-c2cc3cc(C)cc(OC)c3s2)c2c(N)ncnn12)C(C)CO (stereo not shown) under UniProt P11362 had IC50 of 84.1

Entry COc1cc(C)cc2cc(-c3cc(CN4CC[C@H](N)C4)n4ncnc(N)c34)sc12 under UniProt P11362 had IC50 of 4.7

Entry Nc1nccn2c(C3CCN(C(=O)c4ccsc4)CC3)nc(-c3cc4ccccc4s3)c12 [WO 2007/061737 Example 157, reference compound] under UniProt P11362 had IC50 of 3000

Entry COc1cc(C)cc2cc(-c3cc(CN4CCC[C@H](N)C4)n4ncnc(N)c34)sc12 under UniProt P11362 had IC50 of 17.5
